Assay: Metabolic stability, human liver microsomal degradation
Assay type: in vitro ADME
Conditions: human liver microsomes; read-out: Metabolic Stability (Human) t½ (converted)
parameter: half-life (h)
Answer format: numeric, h implied, no suffix.

Here are 2 molecules together with their reported answers.
Data request: # get_value(readout='half-life', item= `CCOP(=O)(OCC)Oc1ccc(CC(=O)N[C@@H]2C[C@@H](C)O[C@H]3O[C@@H]4[C@@H](O)[C@H](NC)[C@H](O)[C@H](NC)[C@H]4O[C@]32O)nc1` )
Data returned: 3.61

Data request: Repeat for the following molecule: `CN[C@@H]1[C@H](O)[C@H](NC)[C@H]2O[C@]3(O)[C@H](O[C@@H]2[C@H]1O)O[C@H](C)C[C@@]3(O)CNCc1ccc(F)c(OP(=O)(O)O)c1`
Data returned: 1.84

Note: attention shifts to another entry.
Data request: # get_value(readout='half-life', item= `CN[C@@H]1[C@H](O)[C@H](NC)[C@H]2O[C@]3(O)[C@H](O[C@@H]2[C@H]1O)O[C@H](C)C[C@H]3NC(=O)Cc1ccc(-c2ccc(OP(=O)(O)O)cc2)cn1` )
Data returned: 2.98

----------
Assay: Single ascending maximum tolerated dose study in rat
Type: in vivo
Conditions: female, Sprague-Dawley, rat, in vivo, iv
parameter: MTD at 24 h

Data request: # get_value(readout='MTD at 24 h', item= `CN[C@@H]1[C@H](O)[C@H](NC)[C@H]2O[C@]3(O)[C@H](O[C@@H]2[C@H]1O)O[C@H](C)C[C@H]3NC(=O)Cc1ccc(O)cn1` )
Data returned: 200 to 350 mg/kg

----------
Experiment: in vitro
Assay type: in vitro ADME
Conditions: human plasma, 37° C., read-out: Plasma Stability (Human) t½ (converted)
Below, each entry is listed with its recorded half-life at 10 µM.

Here are 2 molecules together with their reported answers.
Data request: # get_value(readout='half-life at 10 µM', item= `CN[C@@H]1[C@H](O)[C@H](NC)[C@H]2O[C@]3(O)[C@H](O[C@@H]2[C@H]1O)O[C@H](C)C[C@H]3NC(=O)Cc1ccc(OP(=O)(O)O)cn1` )
Data returned: < 0.0833 h

Data request: Repeat for the following molecule: `CN[C@@H]1[C@H](O)[C@H](NC)[C@H]2O[C@]3(O)[C@H](O[C@@H]2[C@H]1O)O[C@H](C)C[C@H]3NC(=O)Cc1ccc(-c2ccc(OP(=O)(O)O)cc2)cn1`
Data returned: < 0.0833 h

Note: attention shifts to another entry.
Data request: # get_value(readout='half-life at 10 µM', item= `CCOP(=O)(OCC)Oc1ccc(CC(=O)N[C@@H]2C[C@@H](C)O[C@H]3O[C@@H]4[C@@H](O)[C@H](NC)[C@H](O)[C@H](NC)[C@H]4O[C@]32O)nc1` )
Data returned: 19.5 h
